SRSF protein kinase 3 (Homo sapiens, UniProt Q9UPE1) measurements of IC50, listed per entry.
Numbers only, in µM.

compound	IC50 [µM]
CN1C(=O)[C@@H](N2CCc3cn(Cc4ccccc4)nc3C2=O)COc2ccccc21	1

Now look at this entry.
Kindly state the measured IC50 obtained for CN1C(=O)[C@@H](N2CCc3cn(CC4CCS(=O)(=O)CC4)nc3C2=O)COc2ccccc21 [TP-030n] with SRSF protein kinase 3 (Homo sapiens, UniProt Q9UPE1).
1

###

- assay-target: UniProt:P11362
- Sequence (P11362 whole entry): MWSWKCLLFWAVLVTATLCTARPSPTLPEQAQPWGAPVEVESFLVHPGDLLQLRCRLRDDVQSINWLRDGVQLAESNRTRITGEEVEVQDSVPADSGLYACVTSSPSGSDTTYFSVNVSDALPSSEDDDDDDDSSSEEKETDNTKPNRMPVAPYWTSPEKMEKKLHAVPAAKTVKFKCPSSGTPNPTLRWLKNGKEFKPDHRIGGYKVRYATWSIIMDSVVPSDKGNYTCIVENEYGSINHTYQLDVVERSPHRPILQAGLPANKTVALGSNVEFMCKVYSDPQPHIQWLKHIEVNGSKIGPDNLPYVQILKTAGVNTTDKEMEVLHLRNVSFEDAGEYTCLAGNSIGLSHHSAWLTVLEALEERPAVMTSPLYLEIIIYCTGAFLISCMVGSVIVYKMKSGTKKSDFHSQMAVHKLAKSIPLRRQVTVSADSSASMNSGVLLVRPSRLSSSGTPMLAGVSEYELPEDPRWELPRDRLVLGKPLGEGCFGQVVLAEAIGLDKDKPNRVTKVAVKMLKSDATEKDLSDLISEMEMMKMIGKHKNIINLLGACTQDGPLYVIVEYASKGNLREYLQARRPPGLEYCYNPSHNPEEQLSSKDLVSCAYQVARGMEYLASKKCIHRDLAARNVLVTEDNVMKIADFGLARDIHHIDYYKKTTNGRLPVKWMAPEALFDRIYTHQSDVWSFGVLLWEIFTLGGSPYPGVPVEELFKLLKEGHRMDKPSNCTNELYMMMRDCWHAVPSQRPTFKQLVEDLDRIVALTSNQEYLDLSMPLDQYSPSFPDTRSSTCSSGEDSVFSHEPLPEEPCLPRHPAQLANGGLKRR
measured-quantity: pIC50
Answers are plain numbers, as −log10 of the molar value.

Recorded pIC50 for CN1C(=O)[C@@H](N2CCc3cn(CC4CCS(=O)(=O)CC4)nc3C2=O)COc2ccccc21 [TP-030n] , please?
6.00

###

- assay-target: Microtubule-associated serine/threonine-protein kinase 4 (Homo sapiens, UniProt O15021)
- Sequence (O15021 whole entry): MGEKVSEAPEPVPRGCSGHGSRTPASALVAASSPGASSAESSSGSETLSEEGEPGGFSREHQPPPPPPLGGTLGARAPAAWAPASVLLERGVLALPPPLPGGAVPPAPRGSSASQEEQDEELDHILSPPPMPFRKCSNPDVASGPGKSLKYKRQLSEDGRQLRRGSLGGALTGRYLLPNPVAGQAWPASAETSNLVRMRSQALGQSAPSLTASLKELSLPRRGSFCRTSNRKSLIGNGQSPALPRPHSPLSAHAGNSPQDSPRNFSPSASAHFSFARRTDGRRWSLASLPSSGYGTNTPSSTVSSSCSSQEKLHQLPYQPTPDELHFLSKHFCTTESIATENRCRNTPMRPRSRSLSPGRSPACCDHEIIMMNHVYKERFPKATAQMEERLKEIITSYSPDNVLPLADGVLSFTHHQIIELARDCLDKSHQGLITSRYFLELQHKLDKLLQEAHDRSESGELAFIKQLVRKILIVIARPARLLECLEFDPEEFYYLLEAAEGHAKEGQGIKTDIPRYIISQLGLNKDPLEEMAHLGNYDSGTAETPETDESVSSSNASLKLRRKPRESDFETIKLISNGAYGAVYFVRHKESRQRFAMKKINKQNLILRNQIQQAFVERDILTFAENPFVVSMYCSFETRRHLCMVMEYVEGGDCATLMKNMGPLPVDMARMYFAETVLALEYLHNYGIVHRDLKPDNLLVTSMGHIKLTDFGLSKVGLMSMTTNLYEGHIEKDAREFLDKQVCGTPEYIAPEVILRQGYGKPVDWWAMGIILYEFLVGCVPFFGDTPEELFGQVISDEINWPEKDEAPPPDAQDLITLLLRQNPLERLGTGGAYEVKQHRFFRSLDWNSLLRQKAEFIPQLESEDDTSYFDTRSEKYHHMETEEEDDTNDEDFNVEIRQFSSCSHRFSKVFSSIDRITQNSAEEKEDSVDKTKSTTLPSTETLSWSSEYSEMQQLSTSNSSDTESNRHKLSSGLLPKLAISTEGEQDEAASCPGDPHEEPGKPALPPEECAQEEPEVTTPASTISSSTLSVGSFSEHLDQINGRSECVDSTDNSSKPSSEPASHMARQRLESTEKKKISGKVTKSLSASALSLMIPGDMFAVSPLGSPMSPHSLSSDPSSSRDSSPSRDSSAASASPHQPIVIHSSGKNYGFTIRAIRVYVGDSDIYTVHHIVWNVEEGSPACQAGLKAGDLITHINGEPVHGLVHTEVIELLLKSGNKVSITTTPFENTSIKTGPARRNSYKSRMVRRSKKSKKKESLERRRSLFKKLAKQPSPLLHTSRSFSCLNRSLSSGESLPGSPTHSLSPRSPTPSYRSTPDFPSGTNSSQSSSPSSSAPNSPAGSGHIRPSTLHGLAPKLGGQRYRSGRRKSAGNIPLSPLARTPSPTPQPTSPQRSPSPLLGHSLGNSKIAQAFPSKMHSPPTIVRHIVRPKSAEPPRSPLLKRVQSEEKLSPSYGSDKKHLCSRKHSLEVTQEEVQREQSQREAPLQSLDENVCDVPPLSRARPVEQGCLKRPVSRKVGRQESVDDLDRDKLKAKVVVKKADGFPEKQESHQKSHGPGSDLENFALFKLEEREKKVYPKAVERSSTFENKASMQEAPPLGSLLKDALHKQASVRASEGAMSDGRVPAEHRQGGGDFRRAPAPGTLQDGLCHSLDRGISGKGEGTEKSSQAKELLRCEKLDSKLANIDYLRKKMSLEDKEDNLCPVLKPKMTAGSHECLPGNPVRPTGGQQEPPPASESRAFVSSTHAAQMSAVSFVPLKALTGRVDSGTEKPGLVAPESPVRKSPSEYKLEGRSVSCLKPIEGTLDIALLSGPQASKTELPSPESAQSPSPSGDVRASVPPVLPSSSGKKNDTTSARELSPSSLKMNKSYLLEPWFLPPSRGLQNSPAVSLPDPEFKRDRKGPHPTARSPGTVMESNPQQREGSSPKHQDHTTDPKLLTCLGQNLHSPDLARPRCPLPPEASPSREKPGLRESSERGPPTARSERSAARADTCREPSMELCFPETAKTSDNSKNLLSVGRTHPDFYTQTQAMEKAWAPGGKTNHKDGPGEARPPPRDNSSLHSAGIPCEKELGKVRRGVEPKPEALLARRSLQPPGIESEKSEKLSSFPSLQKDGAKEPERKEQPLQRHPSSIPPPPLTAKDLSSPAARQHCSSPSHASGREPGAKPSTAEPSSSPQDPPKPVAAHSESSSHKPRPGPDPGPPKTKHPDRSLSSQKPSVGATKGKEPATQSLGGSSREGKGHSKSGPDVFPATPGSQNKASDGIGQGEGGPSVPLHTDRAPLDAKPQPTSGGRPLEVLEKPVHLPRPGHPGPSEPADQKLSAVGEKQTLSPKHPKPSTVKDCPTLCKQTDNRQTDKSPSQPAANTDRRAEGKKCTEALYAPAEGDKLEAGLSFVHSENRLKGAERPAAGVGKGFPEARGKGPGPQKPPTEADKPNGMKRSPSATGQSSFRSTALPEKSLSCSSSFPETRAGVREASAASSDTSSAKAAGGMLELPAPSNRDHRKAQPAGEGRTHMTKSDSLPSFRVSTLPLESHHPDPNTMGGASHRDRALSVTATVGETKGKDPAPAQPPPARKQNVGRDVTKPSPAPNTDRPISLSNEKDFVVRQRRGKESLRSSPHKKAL
- measurement-description: MAST4(MAS4LGRD) Takeda global kinase panel
Provide the reported IC50 of each item.
Give bare numbers, in nM.

compound	IC50 / nM
CN1C(=O)[C@@H](N2CCc3cn(Cc4ccccc4)nc3C2=O)COc2ccccc21	1000

Please find the next compound below.
Which IC50 reading was recorded for the compound CN1C(=O)[C@@H](N2CCc3cn(CC4CCS(=O)(=O)CC4)nc3C2=O)COc2ccccc21 [TP-030n] ?
1000

###

- assay-target: Phosphatidylinositol 4,5-bisphosphate 3-kinase catalytic subunit beta isoform (Homo sapiens, UniProt P42338)
- measurement-description: PIK3CB(PI3BCGRK) Takeda global kinase panel
Please provide measured pIC50 for the entries that follow.
One number for each entry, as −log10 of the molar value.

molecule	pIC50
CN1C(=O)[C@@H](N2CCc3cn(CC4CCS(=O)(=O)CC4)nc3C2=O)COc2ccccc21 [TP-030n]	6.00

Kindly review the next molecule as well.
Look up pIC50 for this molecule: "CN1C(=O)[C@@H](N2CCc3cn(Cc4ccccc4)nc3C2=O)COc2ccccc21"
6.00

###

- assay-target: Mitogen-activated protein kinase kinase kinase kinase 4 (Homo sapiens)
- measurement-description: HGK [ZC1(M4K4CGP1)] Takeda global kinase panel
measured-quantity: IC50 (nM)
Answers are plain numbers, in nM.

Any idea what IC50 came out for CN1C(=O)[C@@H](N2CCc3cn(Cc4ccccc4)nc3C2=O)COc2ccccc21 [TP-030-1] on Mitogen-activated protein kinase kinase kinase kinase 4 (Homo sapiens)?
1000

###

- assay-target: Macrophage-stimulating protein receptor (Homo sapiens)
- Sequence (Q04912 25-304 limits assumed): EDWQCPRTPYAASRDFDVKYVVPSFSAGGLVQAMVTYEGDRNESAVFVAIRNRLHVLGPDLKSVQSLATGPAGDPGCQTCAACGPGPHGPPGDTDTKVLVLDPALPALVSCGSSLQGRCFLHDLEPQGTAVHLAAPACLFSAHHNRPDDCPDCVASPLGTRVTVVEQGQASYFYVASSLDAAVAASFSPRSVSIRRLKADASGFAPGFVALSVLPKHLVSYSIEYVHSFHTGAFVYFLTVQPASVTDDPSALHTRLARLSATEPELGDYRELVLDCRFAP
- Sequence (Q04912 310-1400 limits assumed): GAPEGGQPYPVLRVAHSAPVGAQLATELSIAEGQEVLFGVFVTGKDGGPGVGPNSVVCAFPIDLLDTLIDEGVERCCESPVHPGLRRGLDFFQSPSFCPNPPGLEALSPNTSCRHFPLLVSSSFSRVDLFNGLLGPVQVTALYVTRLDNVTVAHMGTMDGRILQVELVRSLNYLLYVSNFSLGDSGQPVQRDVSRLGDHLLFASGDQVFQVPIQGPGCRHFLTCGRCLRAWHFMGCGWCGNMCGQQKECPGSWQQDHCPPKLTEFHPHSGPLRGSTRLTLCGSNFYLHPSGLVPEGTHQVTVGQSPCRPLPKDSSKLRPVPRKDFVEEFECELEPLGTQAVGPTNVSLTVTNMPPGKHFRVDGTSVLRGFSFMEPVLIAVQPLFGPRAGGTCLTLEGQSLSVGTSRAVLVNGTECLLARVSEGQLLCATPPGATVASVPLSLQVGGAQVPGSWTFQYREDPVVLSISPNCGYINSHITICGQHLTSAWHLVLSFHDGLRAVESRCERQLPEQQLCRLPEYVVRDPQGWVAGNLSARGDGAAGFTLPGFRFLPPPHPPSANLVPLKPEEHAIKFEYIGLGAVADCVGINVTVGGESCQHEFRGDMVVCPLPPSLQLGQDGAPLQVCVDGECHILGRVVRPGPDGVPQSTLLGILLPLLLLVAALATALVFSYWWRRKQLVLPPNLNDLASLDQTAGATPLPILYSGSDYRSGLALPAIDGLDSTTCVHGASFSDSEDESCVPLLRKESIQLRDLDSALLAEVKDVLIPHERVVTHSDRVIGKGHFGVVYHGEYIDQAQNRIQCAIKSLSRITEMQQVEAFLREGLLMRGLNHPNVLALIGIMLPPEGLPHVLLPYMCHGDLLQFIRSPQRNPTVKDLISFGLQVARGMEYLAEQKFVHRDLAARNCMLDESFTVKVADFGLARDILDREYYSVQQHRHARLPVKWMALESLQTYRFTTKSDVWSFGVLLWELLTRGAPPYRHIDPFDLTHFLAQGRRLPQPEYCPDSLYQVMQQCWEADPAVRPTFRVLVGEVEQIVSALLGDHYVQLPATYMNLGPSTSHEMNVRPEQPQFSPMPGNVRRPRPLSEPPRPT
measured-quantity: pIC50
Numbers only, as −log10 of the molar value.

# query: pIC50 of entry CN1C(=O)[C@@H](N2CCc3cn(CC4CCS(=O)(=O)CC4)nc3C2=O)COc2ccccc21 [TP-030n]
6.00

###

Recorded below: IC50, system SRSF protein kinase 2 (Homo sapiens, UniProt P78362).
One number for each entry, in µM.

molecule	units	IC50
CN1C(=O)[C@@H](N2CCc3cn(Cc4ccccc4)nc3C2=O)COc2ccccc21	µM	1

As a next step, examine the molecule that follows.
Give SRSF protein kinase 2 (Homo sapiens, UniProt P78362) IC50 for CN1C(=O)[C@@H](N2CCc3cn(CC4CCS(=O)(=O)CC4)nc3C2=O)COc2ccccc21 [TP-030n]
1

###

Record: IC50 reported on Serine/threonine-protein kinase RIO2 (Homo sapiens).
Give bare numbers, in nM.

molecule	IC50 (nM)
CN1C(=O)[C@@H](N2CCc3cn(CC4CCS(=O)(=O)CC4)nc3C2=O)COc2ccccc21 [TP-030n]	1000

--- query ---
Which IC50 value belongs to "CN1C(=O)[C@@H](N2CCc3cn(Cc4ccccc4)nc3C2=O)COc2ccccc21" ?
1000
